experiment: recombinant barcode read abundance after kanamycin selection (control-corrected) (log10(CPM+1)); higher = more efficient recombination; sequences stand for … in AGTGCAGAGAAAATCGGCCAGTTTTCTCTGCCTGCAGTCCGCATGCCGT…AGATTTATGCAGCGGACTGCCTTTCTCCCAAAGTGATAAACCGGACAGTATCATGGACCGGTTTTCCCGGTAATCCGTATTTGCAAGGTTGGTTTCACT; site = the 11-nt target
Threshold check on recombinant barcode read abundance (log10): at or above 0.2 gives Met, strictly below gives Not met.

Q) Given AGGGGAGCTTGGGTTCTAACCTGTTGCCT (site AGGGTAGCTAG) , state whether its recombinant barcode read abundance (log10) is at least 0.2.
A) Met

Q) Given CATAGCCCTTGGGTTCTAACCTGTTGCAT (site CATAGACCTAT) , state whether its recombinant barcode read abundance (log10) is at least 0.2.
A) Not met

Q) Given CTCAATTCTTGGGTTCTAACCTGTTGCAA (site CTCAATACTTC) , state whether its recombinant barcode read abundance (log10) is at least 0.2.
A) Not met

Q) Given CGGCTATCTTGGGTTCTAACCTGTTGCCT (site CGGCTATCTAG) , state whether its recombinant barcode read abundance (log10) is at least 0.2.
A) Not met

Q) Given TCGAAGGCTTGGGTTCTAACCTGTTGCCT (site TCGAAGGCTAG) , state whether its recombinant barcode read abundance (log10) is at least 0.2.
A) Met

Q) Given ACTATCCCTTGGGTTCTAACCTGTTGCGG (site ACTATCCCTCC) , state whether its recombinant barcode read abundance (log10) is at least 0.2.
A) Met

Q) Given TCCTACCCTTGGGTTCTAACCTGTTGCCT (site TGCTACCCTAG) , state whether its recombinant barcode read abundance (log10) is at least 0.2.
A) Not met

Q) Given TGAGCGGCTTGGGTTCTAACCTGTTGCCT (site TGAGCGGCTAG) , state whether its recombinant barcode read abundance (log10) is at least 0.2.
A) Met

Q) Given AGTAAGACTTGGGTTCTAACCTGTTGCTA (site AGTAAGACTTA) , state whether its recombinant barcode read abundance (log10) is at least 0.2.
A) Met

###

test: recombinant UMI read abundance after kanamycin selection (control-corrected) (log10(CPM+1)); higher = more efficient recombination; extreme values may be limits of the assay; sequences stand for … in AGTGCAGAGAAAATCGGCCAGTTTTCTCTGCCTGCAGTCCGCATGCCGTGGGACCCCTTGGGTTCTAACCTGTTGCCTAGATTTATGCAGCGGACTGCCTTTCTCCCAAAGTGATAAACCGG…AGGTTGGTTTCACT; site = the 11-nt donor
Threshold check on recombinant UMI read abundance (log10): at or above 0.1 gives criterion met, strictly below gives criterion not met.

Q) Given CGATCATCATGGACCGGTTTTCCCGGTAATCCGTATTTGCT (site GGATGATCTAG) , state whether its recombinant UMI read abundance (log10) is at least 0.1.
A) criterion not met

Q) Given AAGTTCCCATGGACCGGTTTTCCCGGTAATCCGTATTTGTG (site AAGTTCCCTCA) , state whether its recombinant UMI read abundance (log10) is at least 0.1.
A) criterion met

Q) Given TGAGCTTCATGGACCGGTTTTCCCGGTAATCCGTATTTGTA (site TGAGCTTCTTA) , state whether its recombinant UMI read abundance (log10) is at least 0.1.
A) criterion met

Q) Given GGAACGACATGGACCGGTTTTCCCGGTAATCCGTATTTGAT (site GGAACGACTAT) , state whether its recombinant UMI read abundance (log10) is at least 0.1.
A) criterion met

Q) Given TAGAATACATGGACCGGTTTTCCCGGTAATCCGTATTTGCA (site GAGAATACTTG) , state whether its recombinant UMI read abundance (log10) is at least 0.1.
A) criterion met

Q) Given GTACAAGCATGGACCGGTTTTCCCGGTAATCCGTATTTGCA (site GTACAAGCTTG) , state whether its recombinant UMI read abundance (log10) is at least 0.1.
A) criterion met

Q) Given ACCGTATCATGGACCGGTTTTCCCGGTAATCCGTATTTGCA (site ACTGTATCTTG) , state whether its recombinant UMI read abundance (log10) is at least 0.1.
A) criterion met

Q) Given ACTAGAACATGGACCGGTTTTCCCGGTAATCCGTATTTGAC (site ACTAGAACTGT) , state whether its recombinant UMI read abundance (log10) is at least 0.1.
A) criterion met

Q) Given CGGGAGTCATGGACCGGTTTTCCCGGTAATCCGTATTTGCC (site CGGGATTCTGG) , state whether its recombinant UMI read abundance (log10) is at least 0.1.
A) criterion not met
